- ASSAYED_TARGET: T1, Biotin Y46,48,51(SO3) PSGL-1(42-62) peptide (human, sulfotyrosine at Y46, Y48 and Y51; C-terminal Lys-biotin)
- T1 construct: also called fully sulfated N-terminal PSGL-1 peptide
- T1 peptide: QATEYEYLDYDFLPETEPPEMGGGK
- TEST_SUMMARY: ELISA, plate-bound target
Labelling field: enter fulfilled if recorded EC50 is less than 0.9 nM. Enter not fulfilled if it equals or exceeds that cut-off.

BINDER	ANSWER_LABEL
9F9 (antibody, V domains shown, Control anti-PSGL-1 mAb, recombinant; only variable domains given; also called 9F6) VH: EVQLVETGGGLVQPKGSLKLSCAASGFTFNTNAMNWVRQAPGKGLEWVARIRSKSNNYATYYADSVKDRFTISRDDTQSMIYLQMNNLKTEDTGMYYCVRGGSYWYFDVWGAGTTVTVSS VL: DVLMTQTPLSLPVSLGDQASISCRSSQSIVNSNGNTYLEWYLQKPGQSPKLLIYKVSNRFSGVPDRFSGSGSGTDFTLKISRVEAEDLGVYYCFQGSHVPWTFGGGTKLEIK	fulfilled
2E12 (antibody, V domains shown, Mouse hybridoma mAb; only variable domains given) VH: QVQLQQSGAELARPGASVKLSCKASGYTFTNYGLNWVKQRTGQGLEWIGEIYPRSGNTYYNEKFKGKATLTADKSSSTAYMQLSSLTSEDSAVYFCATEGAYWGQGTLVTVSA VL: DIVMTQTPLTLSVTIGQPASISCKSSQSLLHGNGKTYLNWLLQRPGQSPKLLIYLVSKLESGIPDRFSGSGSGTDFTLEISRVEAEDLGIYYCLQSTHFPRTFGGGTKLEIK	not fulfilled
18F02 (antibody, V domains shown, From mouse immunisation; only variable domains given) VH: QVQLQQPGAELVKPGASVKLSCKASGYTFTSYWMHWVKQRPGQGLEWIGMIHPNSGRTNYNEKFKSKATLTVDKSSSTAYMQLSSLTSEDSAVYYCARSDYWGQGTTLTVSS VL: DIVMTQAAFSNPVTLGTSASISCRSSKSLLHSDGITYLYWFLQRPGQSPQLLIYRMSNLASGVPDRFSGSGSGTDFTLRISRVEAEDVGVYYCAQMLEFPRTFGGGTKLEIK	fulfilled
43B6 (antibody, V domains shown, Control anti-PSGL-1 mAb, recombinant; only variable domains given; also called 43B3) VH: EVQLQQSGPDLVKPGALVKISCKASGYSFTAYYIHWVKQSHGKSLEWIGRVNPNTGGTSYNPKFKGKAILNVDKSSSTAYMELRSLTSEDSAVYYCARSGSPYYRYDDWGQGTTLTVSS VL: ENVLTQSPAIMSASPGEKVTMTCRASSTVNSTYLHWFQQKSGASPKLWIYGSSNLASGVPARFSGSGSGTSYSLTISSVEAEDAATYYCQQYSGYPLTFGAGTTLELK	fulfilled
